Molecular target: DRB1*0101 (DR1) (Homo sapiens, UniProt P01903+P01911, A100R/D57E/F55L/F60I/F76Y/I96L/L162R/M171V/P40L/Q125E/R42F/V115G/Y59C)
Experiment: HLA class II binding assay, purified HLA molecules
Settings: Her2/neu DR supertype primary binding, Table XXVIII
Rule: measured IC50 below 80 nM gets label 1; anything equal to or greater than 80 nM gets label 0.

INSERT INTO measurements (compound_structure, class) VALUES
  ('CC(C)C[C@H](NC(=O)[C@H](C)NC(=O)[C@H](Cc1ccc(O)cc1)NC(=O)[C@H](CC(N)=O)NC(=O)[C@H](CC(=O)O)NC(=O)[C@H](CCC(=O)O)NC(=O)[C@H](Cc1ccccc1)NC(=O)[C@H](CC(C)C)NC(=O)[C@H](CCC(N)=O)NC(=O)[C@@H](N)[C@@H](C)O)C(=O)N[C@@H](C)C(=O)N[C@H](C(=O)N[C@@H](CC(C)C)C(=O)N[C@@H](CC(=O)O)C(=O)N[C@@H](CC(N)=O)C(=O)O)C(C)C', 'label 0'),
  ('CC[C@H](C)[C@H](NC(=O)[C@H](CCC(N)=O)NC(=O)[C@H](CCSC)NC(=O)[C@H](CS)NC(=O)[C@H](Cc1c[nH]c2ccccc12)NC(=O)[C@H](CC(N)=O)NC(=O)[C@H](CC(C)C)NC(=O)[C@@H](N)CC(C)C)C(=O)N[C@@H](C)C(=O)N[C@@H](CCCCN)C(=O)NCC(=O)N[C@@H](CCSC)C(=O)N[C@@H](CO)C(=O)N[C@@H](Cc1ccc(O)cc1)C(=O)N[C@@H](CC(C)C)C(=O)O', 'label 1'),
  ('CC[C@H](C)[C@H](NC(=O)CNC(=O)[C@H](CC(=O)O)NC(=O)[C@H](Cc1ccc(O)cc1)NC(=O)[C@@H]1CCCN1C(=O)[C@H](CCCCN)NC(=O)[C@H](C)NC(=O)CNC(=O)[C@H](Cc1ccccc1)NC(=O)[C@@H](NC(=O)[C@H](CCSC)NC(=O)[C@H](CC(C)C)NC(=O)[C@H](CCC(=O)O)NC(=O)[C@H](Cc1c[nH]c2ccccc12)NC(=O)[C@@H](N)C(C)C)[C@@H](C)O)C(=O)O', 'label 1'),
  ('CSCC[C@H](NC(=O)[C@@H](NC(=O)[C@H](Cc1ccc(O)cc1)NC(=O)[C@H](C)NC(=O)[C@H](CCC(=O)O)NC(=O)[C@@H](N)CC(=O)O)C(C)C)C(=O)N[C@@H](C)C(=O)NCC(=O)N[C@H](C(=O)NCC(=O)N[C@@H](CO)C(=O)N1CCC[C@H]1C(=O)N[C@@H](Cc1ccc(O)cc1)C(=O)N[C@H](C(=O)N[C@@H](CO)C(=O)O)C(C)C)C(C)C', 'label 0'),
  ('CSCC[C@H](NC(=O)[C@H](CC(C)C)NC(=O)[C@H](CCC(N)=O)NC(=O)[C@@H](NC(=O)[C@@H](NC(=O)[C@H](CC(C)C)NC(=O)[C@H](CCC(N)=O)NC(=O)[C@@H](NC(=O)[C@@H](N)[C@@H](C)O)C(C)C)C(C)C)[C@@H](C)O)C(=O)N1CCC[C@H]1C(=O)N[C@@H](Cc1ccc(O)cc1)C(=O)NCC(=O)N[C@@H](CS)C(=O)N[C@@H](CC(C)C)C(=O)N[C@@H](CC(C)C)C(=O)O', 'label 1');

====

Target: A*2402 (Homo sapiens, UniProt P04439, D101N/D140Y/D185E/E176V/E190D/F33S/G103R/G107R/I119L/I121M/I306V/K335N/L105A/L180Q/L300P/N151K/N90K/Q86E/Q94H/R106L/R138H/R89G/T104I/T345S/V100E/W191G/Y123F)
Assay: HLA class I binding assay, purified HLA molecules
Details: HLA-A24 Motif-Bearing Peptides, Table XXVI
Where no end group is shown, it is not given here.
The following sequences are listed with their measured IC50 values.
readout: IC50 (nM)

INSERT INTO results (sequence_string, readout, numeric_value) VALUES
  ('CYGLGMEHF [Her2/neu.342.F9]', 'IC50', 164),
  ('LYISAWPDSL [Her2/neu.410]', 'IC50', 143),
  ('AYSLTLQGF [Her2/neu.440.F9]', 'IC50', 52),
  ('AYSLTLQGL [Her2/neu.440]', 'IC50', 92),
  ('LYISAWPDSF [Her2/neu,410.F10]', 'IC50', 10),
  ('AYPDSLPDF [Herw/neu414.Y2F9]', 'IC50', 24),
  ('TYLPTNASF [Her2/neu.63.F9]', 'IC50', 44);

====

Each entry below lists one item and its recorded pIC50 value.
Target: DRB1*0101 (DR1) (Homo sapiens, UniProt P01903+P01911, A100R/D57E/F55L/F60I/F76Y/I96L/L162R/M171V/P40L/Q125E/R42F/V115G/Y59C)
Assay: HLA class II binding assay, purified HLA molecules
Details: Her2/neu DR supertype primary binding, Table XXVIII
pIC50: −log10 of the molar value.
readout: pIC50

INSERT INTO results (compound, numeric_value) VALUES
  ('CC[C@H](C)[C@H](NC(=O)CNC(=O)[C@@H](NC(=O)[C@@H](NC(=O)[C@H](C)NC(=O)[C@H](CO)NC(=O)[C@@H](NC(=O)[C@@H](NC(=O)[C@H](CO)NC(=O)[C@@H](NC(=O)[C@@H](N)CC(C)C)[C@@H](C)O)[C@@H](C)CC)[C@@H](C)CC)C(C)C)C(C)C)C(=O)N[C@@H](CC(C)C)C(=O)N[C@@H](CC(C)C)C(=O)N[C@H](C(=O)N[C@H](C(=O)O)C(C)C)C(C)C [Her2/neu.651]', 7.59),
  ('CC[C@H](C)[C@H](NC(=O)[C@H](CCCCN)NC(=O)[C@H](CCCCN)NC(=O)[C@@H](N)CS)C(=O)N[C@@H](Cc1ccccc1)C(=O)NCC(=O)N[C@@H](CO)C(=O)N[C@@H](CC(C)C)C(=O)N[C@@H](C)C(=O)N[C@@H](Cc1ccccc1)C(=O)N[C@@H](CC(C)C)C(=O)N1CCC[C@H]1C(=O)N[C@@H](CCC(=O)O)C(=O)N[C@@H](CO)C(=O)N[C@@H](Cc1ccccc1)C(=O)O [Her2/neu.367]', 7.68),
  ('CC[C@H](C)[C@H](NC(=O)CNC(=O)[C@@H](NC(=O)[C@@H](NC(=O)[C@H](C)NC(=O)[C@H](CO)NC(=O)[C@@H](NC(=O)[C@@H](NC(=O)[C@H](CO)NC(=O)[C@@H](NC(=O)[C@H](CC(C)C)NC(=O)[C@@H]1CCCN1C(=O)[C@H](CO)NC(=O)[C@H](C)N)[C@@H](C)O)[C@@H](C)CC)[C@@H](C)CC)C(C)C)C(C)C)C(=O)N[C@@H](CC(C)C)C(=O)O [Her2/neu.648]', 7.25);

====

Target: DRB1*0101 (DR1) (Homo sapiens, UniProt P01903+P01911, A100R/D57E/F55L/F60I/F76Y/I96L/L162R/M171V/P40L/Q125E/R42F/V115G/Y59C)
Assay: HLA class II binding assay, purified HLA molecules
Conditions: Her2/neu DR supertype primary binding, Table XXVIII
pIC50: −log10 of the molar value. Where no end group is shown, it is not given here.
readout: pIC50

INSERT INTO assay_data (sequence_string, readout, measurement_qualifier, numeric_value) VALUES
  ('QPDVRPQPPSPREGP [Her2/neu.1142]', 'pIC50', '=', 5.15),
  ('VEPLTPSGAMPNQAQ [Her2/neu.697]', 'pIC50', '<', 5.20),
  ('ITDFGLARLLDIDET [Her2/neu.861]', 'pIC50', '=', 5.98),
  ('ETELVEPLTPSGAMP [Her2/neu.693]', 'pIC50', '=', 6.08),
  ('LLVVVLGVVFGILIK [Her2/neu.662]', 'pIC50', '<', 5.20),
  ('DMKLRLPASPETHLD [Her2/neu.30]', 'pIC50', '=', 5.30);

====

Molecular target: DRB1*0301 (DR3) (Homo sapiens, UniProt P01903+P01911, A100K/A102G/A103R/A169T/F55Y/I96L/K41T/L162R/M171V/P40S/Q125H/Q178H/Q39Y/R42S/S66N/T106N/T262R/W38E/Y61H)
Sequence (P01903 26-254 limits assumed, other chains not shown): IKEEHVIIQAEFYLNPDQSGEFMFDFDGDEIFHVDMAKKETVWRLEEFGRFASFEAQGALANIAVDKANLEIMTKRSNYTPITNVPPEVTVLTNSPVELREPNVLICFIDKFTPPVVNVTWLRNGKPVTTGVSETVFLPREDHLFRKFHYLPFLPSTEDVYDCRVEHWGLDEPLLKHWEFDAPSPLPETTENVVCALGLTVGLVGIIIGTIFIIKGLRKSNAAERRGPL
Test: HLA class II binding assay, purified HLA molecules
Details: Table XXX
Where no end group is shown, it is not given here.
readout: IC50 (µM)

INSERT INTO measurements (sequence_string, numeric_value) VALUES
  ('SLSFLQDIQEVQGYV [Her2/neu.70]', 5.77);
